Molecular target: EGFR (Homo sapiens, UniProt P00533)
Construct: purchased DiscoverX (KINOMEscan service); host or cells: E. coli BL21-derived host (T7 phage) or HEK-293
Sequence (P00533 25-1210): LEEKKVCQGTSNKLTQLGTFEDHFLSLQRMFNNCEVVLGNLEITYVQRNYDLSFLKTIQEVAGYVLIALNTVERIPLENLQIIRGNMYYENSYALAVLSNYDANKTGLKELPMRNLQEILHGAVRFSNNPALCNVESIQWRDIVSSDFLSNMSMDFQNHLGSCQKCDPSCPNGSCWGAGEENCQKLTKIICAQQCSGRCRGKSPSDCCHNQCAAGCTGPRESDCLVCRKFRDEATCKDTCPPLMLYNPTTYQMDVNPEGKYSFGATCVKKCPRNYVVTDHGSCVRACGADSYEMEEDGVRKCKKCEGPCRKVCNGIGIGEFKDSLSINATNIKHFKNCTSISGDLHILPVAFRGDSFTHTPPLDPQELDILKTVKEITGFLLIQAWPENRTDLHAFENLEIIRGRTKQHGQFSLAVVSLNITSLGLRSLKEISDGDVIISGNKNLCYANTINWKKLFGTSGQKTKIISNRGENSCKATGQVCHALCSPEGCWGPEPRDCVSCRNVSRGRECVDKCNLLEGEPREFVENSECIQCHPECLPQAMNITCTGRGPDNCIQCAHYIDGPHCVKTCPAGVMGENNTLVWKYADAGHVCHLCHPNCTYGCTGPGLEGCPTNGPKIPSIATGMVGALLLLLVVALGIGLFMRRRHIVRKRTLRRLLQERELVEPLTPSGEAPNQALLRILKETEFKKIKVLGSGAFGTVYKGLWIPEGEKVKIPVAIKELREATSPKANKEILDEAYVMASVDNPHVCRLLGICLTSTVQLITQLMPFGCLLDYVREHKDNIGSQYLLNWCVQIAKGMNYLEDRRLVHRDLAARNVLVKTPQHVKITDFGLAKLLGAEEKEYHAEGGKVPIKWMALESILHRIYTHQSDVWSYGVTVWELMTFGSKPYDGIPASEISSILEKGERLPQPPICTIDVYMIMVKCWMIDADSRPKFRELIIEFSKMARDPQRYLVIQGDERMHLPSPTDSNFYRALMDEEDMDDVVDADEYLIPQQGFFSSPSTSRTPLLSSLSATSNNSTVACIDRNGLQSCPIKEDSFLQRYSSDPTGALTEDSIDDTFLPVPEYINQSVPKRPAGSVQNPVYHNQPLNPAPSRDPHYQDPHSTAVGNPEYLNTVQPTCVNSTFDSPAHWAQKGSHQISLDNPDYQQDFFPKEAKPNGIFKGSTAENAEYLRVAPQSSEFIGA
Assay: DiscoverX KINOMEscan competition binding assay
Conditions: compound 10 µM; lower values = higher affinity; below 35% = significant binding
ATTRIBUTE_MEASURED: % control, EGFR (DiscoverX) (% control)

O=C(Cn1cnc2c(cnn2CCO)c1=O)NCc1ccccc1    100
Cc1ccc(-n2cnnn2)cc1NC(=O)NCC1CC1    100
Cc1ccc(NC(=O)COC(=O)c2cc(=O)[nH]c3ccccc23)cc1    90
CCc1nnc(NC(=O)c2nn(-c3ccc(C)cc3)ccc2=O)s1    100
Cc1ccc(/C=C2\N=C(c3cccc(S(=O)(=O)N(C)C)c3)OC2=O)s1    100
O=C(O)c1cncnc1NCc1nc(-c2cnccn2)n[nH]1    89
Cc1ccccc1Cn1cnc2c(nnn2-c2ccccc2)c1=O    99
COCCCNC(=O)c1nc2c3c4c(sc3ncn2n1)CCC[C@H]4C    100
Cc1[nH]c2nc3c(c(=O)n(Cc4ccccc4)c(=O)n3C)n2c1C    90
CCCCn1nnnc1CN1CCc2nn(CC)c(=O)cc2C1    100
COCCCNC(=O)c1nc2c3c4c(sc3ncn2n1)COC(C)(C)C4    100
CCOCCCNC(=O)c1nc2c3c4c(sc3ncn2n1)CC[C@@H](C)C4    92

* * *

Target: EGFR-L858R/T790M (Homo sapiens, UniProt P00533, L858R/T790M)
Construct: purchased Carna Biosciences lot12CBS-0765B
Sequence (P00533 25-1210 T790M/L858R): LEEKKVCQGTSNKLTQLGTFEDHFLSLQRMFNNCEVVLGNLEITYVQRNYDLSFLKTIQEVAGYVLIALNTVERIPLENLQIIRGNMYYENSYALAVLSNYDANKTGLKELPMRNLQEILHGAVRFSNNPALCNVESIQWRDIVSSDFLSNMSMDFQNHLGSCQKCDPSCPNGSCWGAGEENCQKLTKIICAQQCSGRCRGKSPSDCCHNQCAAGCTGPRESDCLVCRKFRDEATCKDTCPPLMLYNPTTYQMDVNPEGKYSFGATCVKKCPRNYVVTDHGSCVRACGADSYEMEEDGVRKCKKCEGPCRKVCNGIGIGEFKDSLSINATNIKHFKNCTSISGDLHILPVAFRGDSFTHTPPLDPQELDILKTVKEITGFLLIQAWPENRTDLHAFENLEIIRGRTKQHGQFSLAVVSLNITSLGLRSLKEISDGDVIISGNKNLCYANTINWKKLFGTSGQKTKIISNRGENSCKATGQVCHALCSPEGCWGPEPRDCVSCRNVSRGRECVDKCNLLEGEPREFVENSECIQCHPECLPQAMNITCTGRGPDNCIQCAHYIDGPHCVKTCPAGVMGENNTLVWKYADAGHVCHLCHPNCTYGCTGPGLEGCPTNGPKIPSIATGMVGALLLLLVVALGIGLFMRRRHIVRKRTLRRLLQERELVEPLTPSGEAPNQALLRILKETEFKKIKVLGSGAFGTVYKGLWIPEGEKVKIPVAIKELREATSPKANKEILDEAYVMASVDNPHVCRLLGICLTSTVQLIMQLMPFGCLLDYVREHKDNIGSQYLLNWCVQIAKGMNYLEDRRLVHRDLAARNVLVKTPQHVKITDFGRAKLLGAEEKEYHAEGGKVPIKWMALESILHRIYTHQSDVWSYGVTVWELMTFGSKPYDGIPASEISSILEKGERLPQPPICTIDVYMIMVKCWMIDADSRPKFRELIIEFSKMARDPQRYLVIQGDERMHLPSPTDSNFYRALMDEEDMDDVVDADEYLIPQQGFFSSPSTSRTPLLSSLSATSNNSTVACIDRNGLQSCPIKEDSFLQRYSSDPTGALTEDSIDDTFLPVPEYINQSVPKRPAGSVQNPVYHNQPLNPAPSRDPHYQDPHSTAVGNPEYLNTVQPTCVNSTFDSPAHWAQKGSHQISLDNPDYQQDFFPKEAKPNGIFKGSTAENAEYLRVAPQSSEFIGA
Assay: HTRF KinEASE-TK IC50 determination (Rauh Lab)
Assay type: biochemical
Conditions: ATP at Km (4 µM); read-out: IC50, EGFR L858R/T790M double mutant
ATTRIBUTE_MEASURED: IC50

[in] Short answer please: IC50, EGFR-L858R/T790M (Homo sapiens, UniProt P00533, L858R/T790M), entry COC(=O)Cc1ccc(Oc2ncnc3sc4c(c23)CC[C@@H](C)C4)cc1 (racemic) [DS39984]
[out] > 10 µM

* * *

Target: PI3K (Homo sapiens, UniProt P42336)
Sequence (P42336 whole entry): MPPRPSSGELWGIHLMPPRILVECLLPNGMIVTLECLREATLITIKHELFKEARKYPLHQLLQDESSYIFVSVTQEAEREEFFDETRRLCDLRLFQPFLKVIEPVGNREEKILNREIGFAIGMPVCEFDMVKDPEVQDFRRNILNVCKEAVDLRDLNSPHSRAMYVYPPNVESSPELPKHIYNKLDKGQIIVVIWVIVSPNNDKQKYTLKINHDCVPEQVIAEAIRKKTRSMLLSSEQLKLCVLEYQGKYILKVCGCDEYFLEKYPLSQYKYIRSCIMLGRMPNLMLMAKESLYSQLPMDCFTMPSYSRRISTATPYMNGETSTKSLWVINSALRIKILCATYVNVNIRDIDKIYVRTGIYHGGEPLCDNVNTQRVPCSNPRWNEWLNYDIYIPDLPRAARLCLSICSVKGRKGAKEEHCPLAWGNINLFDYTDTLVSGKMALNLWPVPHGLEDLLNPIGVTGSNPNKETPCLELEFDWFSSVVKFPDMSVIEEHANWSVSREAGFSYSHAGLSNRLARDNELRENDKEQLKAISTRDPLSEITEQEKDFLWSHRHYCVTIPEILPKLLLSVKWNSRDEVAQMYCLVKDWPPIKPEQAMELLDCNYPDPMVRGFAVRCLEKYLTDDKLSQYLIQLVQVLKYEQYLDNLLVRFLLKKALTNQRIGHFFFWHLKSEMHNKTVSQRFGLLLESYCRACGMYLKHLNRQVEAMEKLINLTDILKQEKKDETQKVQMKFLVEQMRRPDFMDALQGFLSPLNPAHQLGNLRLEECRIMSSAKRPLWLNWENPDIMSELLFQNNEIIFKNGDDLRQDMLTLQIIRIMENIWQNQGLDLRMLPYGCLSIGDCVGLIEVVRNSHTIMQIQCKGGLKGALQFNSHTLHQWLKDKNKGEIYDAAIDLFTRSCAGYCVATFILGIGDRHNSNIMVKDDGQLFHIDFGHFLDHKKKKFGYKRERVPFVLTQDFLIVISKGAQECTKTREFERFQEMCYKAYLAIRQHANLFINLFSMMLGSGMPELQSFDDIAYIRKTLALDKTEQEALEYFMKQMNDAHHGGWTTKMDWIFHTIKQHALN
Test: DiscoverX KINOMEscan competition binding assay
Set-up: purchased DiscoverX (KINOMEscan service); host or cells: E. coli BL21-derived host (T7 phage) or HEK-293
Conditions: compound 10 µM; lower values = higher affinity; below 35% = significant binding
ATTRIBUTE_MEASURED: % control, PI3K (DiscoverX) (% control)

COCCCNC(=O)c1nc2c3c4c(sc3ncn2n1)COC(C)(C)C4    99
Cc1cc(=O)n2nc(N(C)CC(=O)NCc3cccs3)sc2n1    100
Cc1ccc(-n2cnnn2)cc1NC(=O)NC1CC1    100
COCCCNC(=O)c1nc2c3c4c(sc3ncn2n1)CC[C@H](C)C4    73
Cc1ccc(-n2cnnn2)cc1NC(=O)NCC1CC1    94
COCCCNC(=O)c1nc2c3c4c(sc3ncn2n1)CCC[C@H]4C    100
CC1(C)C2CC=C(COC(=O)c3cnn4cccnc34)C1C2 (centres unmarked)    100
O=C(Oc1ccc2c3c(c(=O)oc2c1)CCC3)c1cccc(Cl)c1    100
Cc1ccc(/C=C2\N=C(c3cccc(S(=O)(=O)N(C)C)c3)OC2=O)s1    100
COC(=O)Cc1ccc(Oc2ncnc3sc4c(c23)CC[C@@H](C)C4)cc1 (racemic)    100
CC(=O)c1cc(CC(=O)N(C)C[C@H]2CCCCO2)cs1    100
O=C1C[C@@H](c2noc(-c3ccc[nH]c3=O)n2)CN1Cc1ccccc1    100
CCc1nccc(-c2nccn2C(Cn2cccn2)c2ccccc2)n1 (centres unmarked)    97
O=C(O)c1cncnc1NCc1nc(-c2cnccn2)n[nH]1    97
C[C@H](COCC(F)(F)F)NC(=O)Cc1n[nH]c(=O)c2ccccc12    100
CN(C)S(=O)(=O)c1cccc(C2=N/C(=C\c3cccc(F)c3)C(=O)O2)c1    100
CC(C)n1ccc(=O)nc1SC1CCN(c2ccccc2F)C1=O (centres unmarked)    100
O=C(NCC1CC1)Nc1ccc(N2CCOC2=O)cc1    100
CCc1nnc(NC(=O)c2nn(-c3ccc(C)cc3)ccc2=O)s1    87
O=C(Cn1cnc2c(cnn2CCO)c1=O)NCc1ccccc1    100

* * *

Biological target: p38α (Homo sapiens, UniProt Q16539)
Construct: purchased DiscoverX (KINOMEscan service); host or cells: E. coli BL21-derived host (T7 phage) or HEK-293
Sequence (Q16539 whole entry): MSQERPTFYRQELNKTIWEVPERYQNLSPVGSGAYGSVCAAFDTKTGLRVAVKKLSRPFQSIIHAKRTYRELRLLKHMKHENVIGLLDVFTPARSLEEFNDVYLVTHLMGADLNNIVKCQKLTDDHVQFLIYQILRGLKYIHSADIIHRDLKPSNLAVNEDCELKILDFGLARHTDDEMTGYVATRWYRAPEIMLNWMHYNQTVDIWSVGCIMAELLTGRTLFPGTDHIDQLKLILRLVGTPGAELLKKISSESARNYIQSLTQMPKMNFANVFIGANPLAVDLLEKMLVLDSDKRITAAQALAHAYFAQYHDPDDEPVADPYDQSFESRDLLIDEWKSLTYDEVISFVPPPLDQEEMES
Assay: DiscoverX KINOMEscan competition binding assay
Settings: compound 10 µM; lower values = higher affinity; below 35% = significant binding
ATTRIBUTE_MEASURED: % control, p38α (DiscoverX) (% control)

CC(=O)c1cc(CC(=O)N(C)C[C@H]2CCCCO2)cs1    90
COc1ccc(-c2nn(C(C)=O)c3c2C(=O)CC(C)(C)C3)cc1    99
Cc1[nH]c2nc3c(c(=O)n(Cc4ccccc4)c(=O)n3C)n2c1C    97
COCCCNC(=O)c1nc2c3c4c(sc3ncn2n1)COC(C)(C)C4    100
O=C(Cn1cnc2c(cnn2CCO)c1=O)NCc1ccccc1    100
CN(C)S(=O)(=O)c1cccc(C2=N/C(=C\c3cccc(F)c3)C(=O)O2)c1    83
CC(C)n1ccc(=O)nc1SC1CCN(c2ccccc2F)C1=O (stereo not shown)    91
COCCCNC(=O)c1nc2c3c4c(sc3ncn2n1)CCC[C@H]4C    100
CC1(C)C2CC=C(COC(=O)c3cnn4cccnc34)C1C2 (stereo not shown)    100
C[C@H](COCC(F)(F)F)NC(=O)Cc1n[nH]c(=O)c2ccccc12    100
O=C1C[C@@H](c2noc(-c3ccc[nH]c3=O)n2)CN1Cc1ccccc1    100
O=C(O)c1cncnc1NCc1nc(-c2cnccn2)n[nH]1    100
O=C(Oc1ccc2c3c(c(=O)oc2c1)CCC3)c1cccc(Cl)c1    97
Cc1ccc(-n2cnnn2)cc1NC(=O)NCC1CC1    100
COCCCNC(=O)c1nc2c3c4c(sc3ncn2n1)CC[C@H](C)C4    100
O=C(NCC1CC1)Nc1ccc(N2CCOC2=O)cc1    87
Cc1cc(=O)n2nc(N(C)CC(=O)NCc3cccs3)sc2n1    100
CCOCCCNC(=O)c1nc2c3c4c(sc3ncn2n1)CC[C@@H](C)C4    93
CCc1nccc(-c2nccn2C(Cn2cccn2)c2ccccc2)n1 (stereo not shown)    100
CCc1nnc(NC(=O)c2nn(-c3ccc(C)cc3)ccc2=O)s1    99
Cc1ccc(-n2cnnn2)cc1NC(=O)NC1CC1    100
Cc1ccc(/C=C2\N=C(c3cccc(S(=O)(=O)N(C)C)c3)OC2=O)s1    81

* * *

Molecular target: BRAF (Homo sapiens, UniProt P15056)
Construct: purchased DiscoverX (KINOMEscan service); host or cells: E. coli BL21-derived host (T7 phage) or HEK-293
Sequence (P15056 whole entry): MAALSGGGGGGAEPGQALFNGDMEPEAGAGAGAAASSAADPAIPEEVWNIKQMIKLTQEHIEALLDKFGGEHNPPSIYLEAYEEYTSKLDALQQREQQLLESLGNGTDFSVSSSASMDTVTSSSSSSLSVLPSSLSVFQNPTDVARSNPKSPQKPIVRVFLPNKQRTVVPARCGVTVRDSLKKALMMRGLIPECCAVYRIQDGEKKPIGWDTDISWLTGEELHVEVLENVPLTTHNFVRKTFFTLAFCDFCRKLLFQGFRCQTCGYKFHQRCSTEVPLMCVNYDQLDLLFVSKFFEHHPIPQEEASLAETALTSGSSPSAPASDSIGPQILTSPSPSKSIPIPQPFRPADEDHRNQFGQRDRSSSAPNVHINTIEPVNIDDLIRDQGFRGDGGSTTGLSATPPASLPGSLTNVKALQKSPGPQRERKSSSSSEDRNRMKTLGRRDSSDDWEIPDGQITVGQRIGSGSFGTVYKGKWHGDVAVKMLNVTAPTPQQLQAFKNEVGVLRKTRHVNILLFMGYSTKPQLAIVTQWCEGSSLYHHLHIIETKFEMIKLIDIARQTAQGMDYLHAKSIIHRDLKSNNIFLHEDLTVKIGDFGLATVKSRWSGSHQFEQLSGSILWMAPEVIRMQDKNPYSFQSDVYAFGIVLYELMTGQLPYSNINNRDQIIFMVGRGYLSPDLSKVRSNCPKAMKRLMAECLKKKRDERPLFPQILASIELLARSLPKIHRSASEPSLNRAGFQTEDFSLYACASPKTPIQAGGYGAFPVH
Assay: DiscoverX KINOMEscan competition binding assay
Conditions: compound 10 µM; lower values = higher affinity; below 35% = significant binding
Description: Ligand binding experiments for the molecules selected from Profiles 1 and 2 towards nine kinases (EGFR, ErbB2, LCK, CDK2, BRAF, MET, p38α, PI3K and VEGFR2) and for molecules selected from Profiles 3 and 4 towards four kinases (EGFR, ErbB2, BRAF and VEGFR2) were carried out by DiscoverX using the supplied protocol as described in the Supplementary Materials. […]
ATTRIBUTE_MEASURED: % control, BRAF (DiscoverX) (% control)

CC(=O)c1cc(CC(=O)N(C)C[C@H]2CCCCO2)cs1 [DS84326]    100
CCOCCCNC(=O)c1nc2c3c4c(sc3ncn2n1)CC[C@@H](C)C4 [DS82066]    83
CC1(C)C2CC=C(COC(=O)c3cnn4cccnc34)C1C2 (stereo not drawn) [DS34376]    92
Cc1ccc(-n2cnnn2)cc1NC(=O)NC1CC1 [DS44245]    99
COc1ccc(-c2nn(C(C)=O)c3c2C(=O)CC(C)(C)C3)cc1 [DS18339]    100
COCCCNC(=O)c1nc2c3c4c(sc3ncn2n1)CCC[C@H]4C [DS66846]    100
Cc1ccc(-n2cnnn2)cc1NC(=O)NCC1CC1 [DS44738]    100
Cc1cc(=O)n2nc(N(C)CC(=O)NCc3cccs3)sc2n1 [DS72975]    100
Cc1ccc(NC(=O)COC(=O)c2cc(=O)[nH]c3ccccc23)cc1 [K001MM012]    100
Nc1nc(N2CCC[C@H](Cc3nc4ccccc4[nH]3)C2)c2nc[nH]c2n1 [K001MM010]    100
CC1Oc2ccc(Nc3ncnc4c3oc3ccccc34)cc2NC1=O (stereo not drawn) [K001MM011]    100
O=C1C[C@@H](c2noc(-c3ccc[nH]c3=O)n2)CN1Cc1ccccc1 [DS52225]    100
